system_tested: GDP-bound KRAS wild-type protein (Homo sapiens, UniProt P01116)
Sequence (P01116 1-188 isoform P01116-2): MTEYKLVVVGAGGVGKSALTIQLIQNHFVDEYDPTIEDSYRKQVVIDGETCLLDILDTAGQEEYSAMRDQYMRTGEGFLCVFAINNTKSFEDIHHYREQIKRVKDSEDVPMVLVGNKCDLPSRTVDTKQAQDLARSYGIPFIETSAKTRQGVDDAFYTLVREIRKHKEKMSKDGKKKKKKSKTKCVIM
assay_protocol: Binding to KRAS by surface plasmon resonance (SPR), dissociation constant KD
condition: Single Cycle Kinetics
The entries below are paired with their reported Kd.
Expressed in nM, but write only the number.

CCC[C@H]1C(=O)N[C@@H]([C@@H](C)CC)C(=O)N(C)CC(=O)N(C)[C@H]2C/C=C\CCN(C2=O)[C@@H](Cc2ccc(C)cc2)C(=O)N(C)CC(=O)N[C@@H](CCc2cc(F)c(C(F)(F)F)c(F)c2)C(=O)N2CC3(CC3)C[C@H]2C(=O)N(C)C2(CCC2)C(=O)N(C)[C@@H](C(CC)CC)C(=O)N(C)[C@H](C(=O)N(C)C)CC(=O)N1C
0.23
CCCO[C@@H]1C[C@H]2C(=O)NC3(CC(C)(C)C3)C(=O)N(C)[C@@H](C3CCCC3)C(=O)N(C)[C@H](C(=O)N(C)CC)CC(=O)N[C@@H](COCC)C(=O)N[C@@H]([C@@H](C)CC)C(=O)N3CCC[C@H]3C(=O)N(C)[C@H]3C/C=C\CCN(C3=O)[C@@H](Cc3ccc(C)cc3)C(=O)N(C)CC(=O)N[C@@H](CCc3ccc(C(F)(F)F)c(Cl)c3)C(=O)N2C1
3

Alright, here's another molecule for you.
Query block: Item CCO[C@@H]1C[C@H]2C(=O)NC3(CCC3)C(=O)N(C)[C@@H](C3CCCC3)C(=O)N(C)[C@H](C(=O)N(C)C)CC(=O)N(C)[C@@H](CC(C)C)C(=O)N[C@@H]([C@@H](C)CC)C(=O)N(C)CC(=O)N(C)[C@H]3C/C(F)=C\CCN(C3=O)[C@@H](Cc3ccc(C)cc3)C(=O)N(C)CC(=O)N[C@@H](CCc3cc(F)c(C(F)(F)F)c(F)c3)C(=O)N2C1 has what recorded Kd?
Result block: 0.28
